# Tested on: PC3-CXCR4 xenograft tumors
# Assay method text: Biodistribution in mice bearing bilateral PC3-WT/PC3-CXCR4 xenograft tumors
# Format: in vivo, BALB/c mice
# Conditions: 1 h p.i.
Measurement kind: Pancreas tissue activity (%ID/g)

Here are 2 compounds together with their reported answers.
FCCn1cc(CCNCc2ccc(CN3CCCNCCNCCCNCC3)cc2)nn1 :: 0.26
FCCn1cc(-c2cc(CN3CCCNCCNCCCNCC3)ccc2CNCc2ccccn2)nn1 :: 0.28

P. FCCn1cc(-c2cc(CNCc3ccccn3)ccc2CN2CCCNCCNCCCNCC2)nn1
Q. FCCn1cc(CNCc2ccc(CN3CCCNCCNCCCNCC3)cc2)nn1
-- ask Given P and Q , report the one with the higher recorded Pancreas tissue activity. Answer format: the label of the selected item.
-- reply P
(P: 0.44 %ID/g, Q: 0.20 %ID/g)
